System: MDA-MB-453
Assay text: drug sensitivity score (DSS), in combination with BLU9931 (DSS (weighted AUC score)); higher = more sensitive (stronger viability decrease); extreme values may be limits of the assay
Settings: BLU9931 100 nM; 72 h
Reported values of drug sensitivity score for individual entries
Property measured: drug sensitivity score

Compound	Test target	Property measured	Observed
CCCCc1nc2cc(/C=C/C(=O)NO)ccc2n1CCN(CC)CC [Pracinostat]	MDA-MB-453	drug sensitivity score	19.8
CN1CCN(c2ccc3nc(-c4c(N)c5c(F)cccc5[nH]c4=O)[nH]c3c2)CC1 [Dovitinib]	MDA-MB-453	drug sensitivity score	0
CC(C)c1cc(-c2n[nH]c(=O)n2-c2ccc3c(ccn3C)c2)c(O)cc1O [Ganetespib]	MDA-MB-453	drug sensitivity score	18.5
CCN(CC)CCNC(=O)c1c(C)[nH]c(/C=C2\C(=O)Nc3ccc(F)cc32)c1C [Sunitinib]	MDA-MB-453	drug sensitivity score	0
CCCC(CCC)C(=O)O [Valproic acid]	MDA-MB-453	drug sensitivity score	0.9
COc1cc2c(Oc3ccc4[nH]c(C)cc4c3F)ncnc2cc1OCCCN1CCCC1 [Cediranib]	MDA-MB-453	drug sensitivity score	0
Cc1nn(C)c(COc2ccc(N3CCN(S(=O)(=O)N(C)C)CC3)cc2)c1-c1cccc2c(CCCOc3cccc4ccccc34)c(C(=O)O)n(CCN3CCOCC3)c12	MDA-MB-453	drug sensitivity score	5.8
CC[C@]1(O)C[C@H]2CN(CCc3c([nH]c4ccccc34)[C@@](C(=O)OC)(c3cc4c(cc3OC)N(C=O)[C@H]3[C@@](O)(C(=O)OC)[C@H](OC(C)=O)[C@]5(CC)C=CCN6CC[C@]43[C@@H]65)C2)C1 [Vincristine]	MDA-MB-453	drug sensitivity score	8.1
CC(C)n1cnc2c(NCCc3ccc(O)cc3)nc(-c3csc4ccccc34)nc21 [StemRegenin 1]	MDA-MB-453	drug sensitivity score	0.4

---

Tested on: MDA-MB-453
Assay text: drug sensitivity score (DSS), single agent (DSS (weighted AUC score)); higher = more sensitive (stronger viability decrease); extreme values may be limits of the assay
Settings: BLU9931 0 nM; 72 h
Property measured: drug sensitivity score

> print(dat)
                                   compound  test.target  observed
1  CCOc1cc2ncc(C#N)c(Nc3ccc(OCc4ccccn4)c(Cl)c3)c2cc1NC(=O)/C=C/CN(C)C   MDA-MB-453      15.4
2                    NC(=O)NO [Hydroxyurea]   MDA-MB-453       2.3
3  CC(C)c1c(C(=O)Nc2ccccc2)c(-c2ccccc2)c(-c2ccc(F)cc2)n1CC[C@@H](O)C[C@@H](O)CC(=O)O   MDA-MB-453         0
4  C[C@@H]1COC(Nc2ccc3ncnc(Nc4ccc(OCc5nccs5)c(Cl)c4)c3c2)=N1   MDA-MB-453       6.3
5         CC(=O)c1cc2c(o1)C(=O)c1ccccc1C2=O   MDA-MB-453         0
6  CC(C)C(=O)Nc1ccc([N+](=O)[O-])c(C(F)(F)F)c1 [Flutamide]   MDA-MB-453         0

---

Reported values of drug sensitivity score for individual entries
System: MDA-MB-453
Assay text: drug sensitivity score (DSS), in combination with BLU9931 (DSS (weighted AUC score)); higher = more sensitive (stronger viability decrease); extreme values may be limits of the assay
Settings: BLU9931 100 nM; 72 h

Compound	drug sensitivity score
Cc1cc([C@@H](C)Nc2ccccc2C(=O)O)c2nc(N3CCOCC3)cc(=O)n2c1	7.4
COc1cc2c(Nc3ccc(Cl)c(Cl)c3F)ncnc2cc1OC[C@@H]1C[C@@H]2CN(C)C[C@@H]2C1	11.5
Cc1ccc(Nc2nccc(N(C)c3ccc4c(C)n(C)nc4c3)n2)cc1S(N)(=O)=O	0
OC[C@H]1O[C@@H](n2cnc3c2N=CNC[C@H]3O)C[C@@H]1O	0
CCn1c(-c2nonc2N)nc2cnc(Oc3cccc(NC(=O)c4ccc(OCCN5CCOCC5)cc4)c3)cc21	3.8
C[C@H](Nc1ncnc2[nH]cnc12)c1cc2ccc(F)cc2nc1-c1ccccn1	0.3
Cn1ncc(Cl)c1-c1cc(C(=O)N[C@H](CN)Cc2ccc(F)c(F)c2)oc1Cl	11.2
CC(C)n1nc(-c2ccc3oc(N)nc3c2)c2c(N)ncnc21	17.9
COc1cc2c(NC3CCN(C(C)C)CC3)nc(C3CCCCC3)nc2cc1OCCCN1CCCC1	4.9
CCNC(=O)c1noc(-c2cc(C(C)C)c(O)cc2O)c1-c1ccc(CN2CCOCC2)cc1	19.7
COc1ccccc1S(=O)(=O)Nc1ccc2c(c1)CN(C)C(=O)N2	8.4
CO[C@H](C(=O)[C@@H](O)[C@@H](C)O)[C@@H]1Cc2cc3cc(O[C@H]4C[C@@H](O[C@@H]5C[C@@H](O)[C@H](O)[C@@H](C)O5)[C@H](O)[C@@H](C)O4)c(C)c(O)c3c(O)c2C(=O)[C@H]1O[C@H]1C[C@@H](O[C@@H]2C[C@@H](O)[C@@H](O[C@@H]3C[C@](C)(O)[C@H](O)[C@@H](C)O3)[C@@H](C)O2)[C@H](O)[C@@H](C)O1	15.7
COCCNCc1ccc(-c2cc3nccc(Oc4ccc(NC(=S)NC(=O)Cc5ccc(F)cc5)cc4F)c3s2)nc1	0.5
N#CC(c1ccnc(OCc2ccc(CN3CCOCC3)cc2)n1)c1nc2ccccc2s1 (configuration not stated)	1.3
c1cc(CN2CCCNCCNCCCNCC2)ccc1CN1CCCNCCNCCCNCC1	0
O=C(Nc1ccc(OC(F)(F)Cl)cc1)c1cnc(N2CC[C@@H](O)C2)c(-c2cc[nH]n2)c1	1.2
C[C@@H](Oc1cc(-n2cnc3ccc(CN4CCN(C)CC4)cc32)sc1C(N)=O)c1ccccc1C(F)(F)F	6.3

---

Test system: MDA-MB-453
Assay text: drug sensitivity score (DSS), single agent (DSS (weighted AUC score)); higher = more sensitive (stronger viability decrease); extreme values may be limits of the assay
Settings: BLU9931 0 nM; 72 h
Property measured: drug sensitivity score

> print(dat)
                                    compound  observed
 1  Nc1nc(Nc2ccc3c(c2)CC[C@@H](N2CCCC2)CC3)nn1-c1cc2c(nn1)-c1ccccc1CCC2 [BGB324]       3.2
 2  Cc1cnc(NC(=O)Nc2cc(Br)c(C)cc2OC[C@@H]2CNCCO2)cn1 [Rabusertib]       1.2
 3  CN[C@@H](C)C(=O)N[C@H](C(=O)N1CCC[C@H]1c1nc(C(=O)c2ccc(F)cc2)cs1)C1CCCCC1 [NVP-LCL161]         8
 4  O=C(Nc1c[nH]nc1-c1nc2ccc(CN3CCOCC3)cc2[nH]1)NC1CC1 [AT9283]       2.3
 5  CN1CCN(c2ccc(C(=O)Nc3n[nH]c4ccc(Cc5cc(F)cc(F)c5)cc34)c(NC3CCOCC3)c2)CC1 [Entrectinib]         0
 6  CC(C)(O)CNc1nc(Nc2ccnc(C(F)(F)F)c2)nc(-c2cccc(C(F)(F)F)n2)n1 [Enasidenib]         0
 7  CC(C)[C@@H](CS(=O)(=O)C(C)C)N1C(=O)[C@@](C)(CC(=O)O)C[C@H](c2cccc(Cl)c2)[C@H]1c1ccc(Cl)cc1 [AMG-232]       0.2
 8  Cc1cc(-c2nc(-c3ccc(OC(F)(F)F)cc3)no2)nn1Cc1ccnc(N2CCN(C3CC3)CC2)c1 [BAY 87-2243]      12.2
 9  CCNC(=O)c1noc(-c2cc(C(C)C)c(O)cc2O)c1-c1ccc(CN2CCOCC2)cc1 [Luminespib]      18.1
10  COc1cc(C)[nH]c(=O)c1CNC(=O)c1c(C)n([C@H](C)C2CCOCC2)c2ccccc12 [CPI-360]         0

---

Tested on: MDA-MB-453
Assay text: drug sensitivity score (DSS), single agent (DSS (weighted AUC score)); higher = more sensitive (stronger viability decrease); extreme values may be limits of the assay
Settings: BLU9931 0 nM; 72 h
Binary call on drug sensitivity score: Yes from 2 upward, No beneath that.

Compound	Group
C[C@@H]1C[C@H]2[C@@H]3CCC4=CC(=O)C=C[C@]4(C)[C@@]3(F)[C@@H](O)C[C@]2(C)[C@@]1(O)C(=O)CO	Yes
Nc1ncnc2c1nc(N)n2[C@@H]1O[C@H](CO)[C@@H](O)[C@H]1O	Yes
Cc1c(F)cc(C(=O)NC2CC2)cc1-c1ccc(C(=O)NCC(C)(C)C)cn1	No
Nc1nc2[nH]cc(CCc3ccc(C(=O)N[C@@H](CCC(=O)O)C(=O)O)cc3)c2c(=O)[nH]1	Yes
CNC(=O)c1ccccc1Nc1cc(Nc2ccc(N3CCOCC3)cc2OC)ncc1C(F)(F)F	No
O=c1[nH]cc(F)c(=O)[nH]1	Yes
COc1cccc2c1C(=O)c1c(O)c3c(c(O)c1C2=O)C[C@@](O)(C(=O)CO)C[C@@H]3O[C@H]1C[C@H](N)[C@@H](O)[C@H](C)O1 [Epirubicin]	Yes
Cc1cc(Nc2cc(CN3CCOCC3)c3nc(C)c(Cc4ccc(Cl)cc4F)n3n2)n[nH]1	Yes
C=C(c1ccc(C(=O)O)cc1)c1cc2c(cc1C)C(C)(C)CCC2(C)C	No
Cn1cc(C2=Nc3cc(NC(=O)C(N)C4CCCCC4)cc4c3C2=CNNC4=O)cn1 (configuration not stated)	Yes
C=C1C[C@@H]2[C@H](CC[C@]3(C)C(=O)CC[C@@H]23)[C@@]2(C)C=CC(=O)C=C12	Yes
COc1cc([C@@H]2c3cc4c(cc3[C@@H](O[C@@H]3O[C@@H]5CO[C@@H](C)O[C@H]5[C@H](O)[C@H]3O)[C@H]3COC(=O)[C@H]23)OCO4)cc(OC)c1O [Etoposide]	Yes
